// data source = patent US12409162B2

I'd appreciate it if you could supply GI50 values for the items below.
tested on: HeLa cells; assay: Prestoblue cell viability assay on HeLa cells (compounds alone and with paclitaxel); format: cell-based; conditions: Homo sapiens, HeLa, 72 h, compound alone, HeLa cells, 72 h; read-out: GI50 (50% of growth inhibition)
Give bare numbers, in µM.

Cc1cc(-n2ccc(C=O)c2)c(C)c2c1[nH]c1ccc(Cl)cc12 :: 2
Cc1cc(-n2ccc(C=O)c2)c(C)c2c1[nH]c1ccc(Br)cc12 :: 1.06
Cc1cc(-n2cccc2)c(C)c2c1[nH]c1ccc(Br)cc12 :: 16.2
Cc1cc(-n2cccc2)c(C)c2c1[nH]c1cc(Cl)ccc12 :: 14.8

Entry `Cc1cc(-n2ccc(CO)c2)c(C)c2c1[nH]c1ccc(Cl)cc12` — recorded GI50 = 2
